Biological target: NMDA receptor (GRIN1/GRIN2A) (Homo sapiens, UniProt Q05586+Q12879)
Sequence (Q12879 23-1464, other chains not shown): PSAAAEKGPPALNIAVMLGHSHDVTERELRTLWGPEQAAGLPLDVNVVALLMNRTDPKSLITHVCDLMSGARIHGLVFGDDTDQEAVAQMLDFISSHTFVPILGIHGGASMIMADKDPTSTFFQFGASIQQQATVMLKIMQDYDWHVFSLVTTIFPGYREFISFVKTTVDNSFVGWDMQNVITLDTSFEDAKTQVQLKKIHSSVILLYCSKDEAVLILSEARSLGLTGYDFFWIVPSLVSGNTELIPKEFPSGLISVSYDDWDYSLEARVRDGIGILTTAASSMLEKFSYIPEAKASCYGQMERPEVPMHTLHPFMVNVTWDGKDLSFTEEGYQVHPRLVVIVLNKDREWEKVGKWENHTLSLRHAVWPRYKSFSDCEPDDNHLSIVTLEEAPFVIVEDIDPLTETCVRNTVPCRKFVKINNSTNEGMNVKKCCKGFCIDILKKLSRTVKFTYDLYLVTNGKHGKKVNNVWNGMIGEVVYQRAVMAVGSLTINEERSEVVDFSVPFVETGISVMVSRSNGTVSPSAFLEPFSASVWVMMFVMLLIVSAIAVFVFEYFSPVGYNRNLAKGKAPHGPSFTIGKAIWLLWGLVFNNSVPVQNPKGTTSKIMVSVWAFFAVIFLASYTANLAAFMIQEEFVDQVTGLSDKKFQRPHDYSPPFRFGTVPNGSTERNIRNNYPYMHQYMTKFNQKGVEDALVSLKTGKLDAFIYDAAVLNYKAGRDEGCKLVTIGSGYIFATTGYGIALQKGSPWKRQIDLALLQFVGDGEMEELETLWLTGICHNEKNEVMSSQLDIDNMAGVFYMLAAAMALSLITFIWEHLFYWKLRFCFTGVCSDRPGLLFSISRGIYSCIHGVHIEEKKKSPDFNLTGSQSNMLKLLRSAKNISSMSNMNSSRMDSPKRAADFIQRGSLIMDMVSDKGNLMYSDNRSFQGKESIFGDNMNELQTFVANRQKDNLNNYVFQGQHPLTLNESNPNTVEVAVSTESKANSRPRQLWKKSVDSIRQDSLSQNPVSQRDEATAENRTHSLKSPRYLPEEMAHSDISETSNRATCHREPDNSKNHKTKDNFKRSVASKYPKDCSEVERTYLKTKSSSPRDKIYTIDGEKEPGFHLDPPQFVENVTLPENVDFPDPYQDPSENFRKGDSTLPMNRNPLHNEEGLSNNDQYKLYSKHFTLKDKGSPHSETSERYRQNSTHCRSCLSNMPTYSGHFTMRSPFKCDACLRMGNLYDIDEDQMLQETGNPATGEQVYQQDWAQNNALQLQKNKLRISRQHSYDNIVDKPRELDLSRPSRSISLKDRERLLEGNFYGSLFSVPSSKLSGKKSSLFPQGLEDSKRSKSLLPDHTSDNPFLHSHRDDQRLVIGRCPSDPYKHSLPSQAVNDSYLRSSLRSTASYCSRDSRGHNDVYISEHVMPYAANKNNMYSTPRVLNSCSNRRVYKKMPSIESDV
Experiment: NMDA potentiation, two electrode voltage clamp (TEVC) of Xenopus oocytes expressing NMDA receptor
Type: cell-based
Conditions: 10 μM compound, 3 μM Glutamate and Glycine
Please provide measured activation at 10 µM for the entries that follow.

In: Quote activation at 10 µM reported for `CC[C@](C)(O)CC[C@@H](C)[C@H]1CC[C@H]2[C@@H]3CC[C@H]4C[C@@](C)(O)CC[C@]4(C)[C@H]3CC[C@]12C` please.
Out: 10 to 50%

In: Give me measured activation at 10 µM, please, for this compound: C#CC(C)(O)CC[C@@H](C)[C@H]1CC[C@H]2[C@@H]3CC[C@H]4C[C@@](C)(O)CC[C@]4(C)[C@H]3CC[C@]12C (stereo partly drawn)
Out: 50 to 100%

In: Supply activation at 10 µM value. Item: C=CC(C)(O)CC[C@@H](C)[C@H]1CC[C@H]2[C@@H]3CC=C4C[C@@](C)(O)CC[C@]4(C)[C@H]3CC[C@]12C (stereo partly drawn)
Out: 10 to 50%

In: Look up and state reported activation at 10 µM for C[C@H](CCC(C)(O)CCCO)[C@H]1CC[C@H]2[C@@H]3CC=C4C[C@@](C)(O)CC[C@]4(C)[C@H]3CC[C@]12C (stereo partly drawn)
Out: 50 to 100%

In: Look up activation at 10 µM of `CCCC[C@@](C)(O)CC[C@@H](C)[C@H]1CC[C@H]2[C@@H]3CC[C@H]4C[C@@](C)(O)CC[C@]4(C)[C@H]3CC[C@]12C` and report it.
Out: 10 to 50%

In: Identify measured activation at 10 µM corresponding to `CC[C@@](C)(O)CC[C@@H](C)[C@H]1CC[C@H]2[C@@H]3CC[C@H]4C[C@@](C)(O)CC[C@]4(C)[C@H]3CC[C@]12C`
Out: 10 to 50%

In: Return reported activation at 10 µM. Input compound: C[C@H](CCC(C)(O)C(F)(F)F)[C@H]1CC[C@H]2[C@@H]3CC[C@H]4C[C@@](C)(O)CC[C@]4(C)[C@H]3CC[C@]12C (stereo partly drawn)
Out: 50 to 100%

In: Identify the reported activation at 10 µM for the following entry. `C=C[C@](C)(O)CC[C@@H](C)[C@H]1CC[C@H]2[C@@H]3CC[C@H]4C[C@@](C)(O)CC[C@]4(C)[C@H]3CC[C@]12C`
Out: 10 to 50%

In: State its activation at 10 µM for this compound: `C=CC[C@@](C)(O)CC[C@@H](C)[C@H]1CC[C@H]2[C@@H]3CC=C4C[C@@](C)(O)CC[C@]4(C)[C@H]3CC[C@]12C`
Out: 10 to 50%

----------
Target: NMDA receptor (GRIN1/GRIN2A) (Homo sapiens, UniProt Q05586+Q12879)
Experiment: NMDA potentiation, two electrode voltage clamp (TEVC) of Xenopus oocytes expressing NMDA receptor
Type: cell-based
Settings: 10 μM compound, 3 μM Glutamate and Glycine
Description: NMDA potentiation was assessed using either whole cell patch clamp of mammalian cells which expressed NMDA receptors, or using two-electrode voltage clamp (TEVC) of Xenopus Laevis oocytes expressing NMDA receptors. […] Oocytes were injected with either cDNAs encoding for the human GRIN1 and GRIN2A subunits, using a proprietary automated injection device (Hogg et al., J. Neurosci. Methods, (2008) 169: 65-75) and receptor expression was assessed using electrophysiology at least two days later. […]
Please go through the items and note down their activation at 10 µM.

In: Quickly give me recorded activation at 10 µM for C[C@H](CC(F)(F)[C@H](C)O)[C@H]1CC[C@H]2[C@@H]3CC=C4C[C@@](C)(O)CC[C@]4(C)[C@H]3CC[C@]12C [Compound 11-15]
Out: 10 to 50%

In: Tell me its activation at 10 µM given CC(C)[C@@](C)(O)CC[C@@H](C)[C@H]1CC[C@H]2[C@@H]3CC[C@H]4C[C@@](C)(O)CC[C@]4(C)[C@H]3CC[C@]12C [Compound 8-5] as the entry.
Out: 10 to 50%

In: Please list activation at 10 µM recorded for the molecule C[C@H](CCC(C)(O)CCO)[C@H]1CC[C@H]2[C@@H]3CC=C4C[C@@](C)(O)CC[C@]4(C)[C@H]3CC[C@]12C (stereo partly drawn) [Compound 10-13]
Out: 50 to 100%

In: Determine from records and report activation at 10 µM for C[C@H](CCC(C)(O)C1CC1)[C@H]1CC[C@H]2[C@@H]3CC[C@H]4C[C@@](C)(O)CC[C@]4(C)[C@H]3CC[C@]12C (stereo partly drawn) [Compound 9-6]
Out: 50 to 100%

In: Query activation at 10 µM for CCC[C@](C)(O)CC[C@@H](C)[C@H]1CC[C@H]2[C@@H]3CC[C@H]4C[C@@](C)(O)CC[C@]4(C)[C@H]3CC[C@]12C [Compound 5-7]
Out: 50 to 100%

In: Read the entry COCC[C@](C)(O)CC[C@@H](C)[C@H]1CC[C@H]2[C@@H]3CC[C@H]4C[C@@](C)(O)CC[C@]4(C)[C@H]3CC[C@]12C [Compound 10-17] and write its reported activation at 10 µM.
Out: > 100%

In: State its activation at 10 µM for this molecule: C=CC[C@](C)(O)CC[C@@H](C)[C@H]1CC[C@H]2[C@@H]3CC[C@H]4C[C@@](C)(O)CC[C@]4(C)[C@H]3CC[C@]12C [Compound 6-11]
Out: 10 to 50%

In: Read off the recorded activation at 10 µM for C[C@H](CC[C@@](C)(O)CCO)[C@H]1CC[C@H]2[C@@H]3CC[C@H]4C[C@@](C)(O)CC[C@]4(C)[C@H]3CC[C@]12C [Compound 10-16]
Out: 10 to 50%

In: Name the recorded activation at 10 µM of the item COCC[C@@](C)(O)CC[C@@H](C)[C@H]1CC[C@H]2[C@@H]3CC[C@H]4C[C@@](C)(O)CC[C@]4(C)[C@H]3CC[C@]12C [Compound 10-19] in your answer.
Out: 10 to 50%

In: Give the reported activation at 10 µM for this molecule. C#C[C@](C)(O)CC[C@@H](C)[C@H]1CC[C@H]2[C@@H]3CC[C@H]4C[C@@](C)(O)CC[C@]4(C)[C@H]3CC[C@]12C [Compound 10-8]
Out: 50 to 100%

In: Please list activation at 10 µM recorded for the molecule CCC[C@](C)(O)CC[C@@H](C)[C@H]1CC[C@H]2[C@@H]3CC=C4C[C@@](C)(O)CC[C@]4(C)[C@H]3CC[C@]12C [Compound 5-5]
Out: 10 to 50%

In: Could you please provide reported activation at 10 µM for C[C@H](CC[C@](C)(O)C1CC1)[C@H]1CC[C@H]2[C@@H]3CC=C4C[C@@](C)(O)CC[C@]4(C)[C@H]3CC[C@]12C [Compound 9-4] ? Thanks!
Out: 50 to 100%

In: Quick one: give measured activation at 10 µM for C[C@H](CC[C@@](C)(O)CCO)[C@H]1CC[C@H]2[C@@H]3CC=C4C[C@@](C)(O)CC[C@]4(C)[C@H]3CC[C@]12C [Compound 10-20]
Out: 10 to 50%

In: Specify activation at 10 µM for CC(C)[C@](C)(O)CC[C@@H](C)[C@H]1CC[C@H]2[C@@H]3CC[C@H]4C[C@@](C)(O)CC[C@]4(C)[C@H]3CC[C@]12C [Compound 8-6] and stop.
Out: 10 to 50%

In: Tell me measured activation at 10 µM for COCC[C@](C)(O)CC[C@@H](C)[C@H]1CC[C@H]2[C@@H]3CC=C4C[C@@](C)(O)CC[C@]4(C)[C@H]3CC[C@]12C [Compound 10-22] please.
Out: 50 to 100%

In: Specify measured activation at 10 µM for C[C@H](CC(F)(F)[C@@H](C)O)[C@H]1CC[C@H]2[C@@H]3CC=C4C[C@@](C)(O)CC[C@]4(C)[C@H]3CC[C@]12C [Compound 11-16] .
Out: 10 to 50%

In: Give reported activation at 10 µM value for C[C@H](CC[C@](C)(O)C(F)(F)F)[C@H]1CC[C@H]2[C@@H]3CC[C@H]4C[C@@](C)(O)CC[C@]4(C)[C@H]3CC[C@]12C [Compound 3-8]
Out: 50 to 100%

In: # return recorded activation at 10 µM for input CC[C@]1(O)CC[C@@]2(C)C(=CC[C@H]3[C@@H]4CC[C@H]([C@H](C)CC[C@H](O)C(F)(F)F)[C@@]4(C)CC[C@@H]32)C1 [Compound 2-8]
Out: 50 to 100%

In: Tell me measured activation at 10 µM for CC[C@]1(O)CC[C@@]2(C)C(=CC[C@H]3[C@@H]4CC[C@H]([C@H](C)CCC(O)C(F)(F)F)[C@@]4(C)CC[C@@H]32)C1 (stereo partly drawn) [Compound 2-4] please.
Out: > 100%

In: Determine its reported activation at 10 µM: C[C@H](CC[C@](C)(O)C1CC1)[C@H]1CC[C@H]2[C@@H]3CC[C@H]4C[C@@](C)(O)CC[C@]4(C)[C@H]3CC[C@]12C [Compound 9-8]
Out: 10 to 50%

In: Note activation at 10 µM for the molecule shown: CC(C)[C@](C)(O)CC[C@@H](C)[C@H]1CC[C@H]2[C@@H]3CC=C4C[C@@](C)(O)CC[C@]4(C)[C@H]3CC[C@]12C [Compound 8-8]
Out: > 100%
